- Study system: KRAS G12C (Homo sapiens (Human), UniProt P01116+P62937, G12C)
- Sequence (P01116-2 other isoform, or with tags, fused parts or gaps G12C): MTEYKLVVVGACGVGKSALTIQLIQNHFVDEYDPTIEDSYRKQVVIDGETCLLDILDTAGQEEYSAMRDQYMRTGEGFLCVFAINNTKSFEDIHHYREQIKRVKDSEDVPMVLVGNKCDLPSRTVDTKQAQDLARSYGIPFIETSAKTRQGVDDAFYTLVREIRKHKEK
- Sequence (P62937 whole entry): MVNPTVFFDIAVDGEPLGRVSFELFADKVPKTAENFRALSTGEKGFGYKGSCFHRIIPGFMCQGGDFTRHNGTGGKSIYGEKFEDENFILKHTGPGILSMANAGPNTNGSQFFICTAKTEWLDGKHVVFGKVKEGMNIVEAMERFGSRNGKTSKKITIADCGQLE
- Protocol description: Ras-Raf disruption/FRET/MOA assay (BRAF RBD, Cyclophilin A)
- Format: biochemical
- Condition set: read-out: KRAS G12C FRET IC50
pIC50: −log10 of the molar value.
Recorded metric: pIC50

CCn1c(-c2cccnc2[C@H](C)OC)c2c3cc(ccc31)-c1csc(n1)C[C@H](NC(=O)[C@H](C(C)C)N1CCCN(C)C1=O)C(=O)N1CCC[C@H](N1)C(=O)OCC(C)(C)C2 [Compound A317]	5.00 to 6.00

// query Item under review: CCn1c(-c2cccnc2[C@H](C)OC)c2c3cc(ccc31)-c1cc(O)cc(c1)C[C@H](NC(=O)[C@H](C(C)C)N(C)C(=O)[C@H]1CCN(C(=O)CCc3ccccc3)C1)C(=O)N1CCC[C@H](N1)C(=O)OCC(C)(C)C2 [Compound A201] . Reported pIC50?
// result 7.00 to 8.00
